Test system: panelists
measurement.protocol: Sensory properties in acidified water (pH 3.0) at 500 mg/L, 20 panelists
Format: in vivo, human
run.conditions: 500 ppm, acidified water pH 3.0, 20 panelists
Method: The sensory properties of Reb X were evaluated in acidified water (pH 3.0 by phosphoric acid) at 500 mg/L concentration by 20 panelists.
property.name: Bitter taste: Number of panelists detected the attribute
A bare number is all that is needed in reply.

Query: Which Bitter taste: Number of panelists detected the attribute reading was recorded for the molecule C=C1C[C@@]23CC[C@H]4[C@@](C)(CCC[C@@]4(C)C(=O)O[C@@H]4O[C@H](CO)[C@@H](O)[C@H](O)[C@H]4O[C@@H]4O[C@H](CO)[C@@H](O)[C@H](O)[C@H]4O)[C@@H]2CC[C@]1(O[C@@H]1O[C@H](CO)[C@@H](O)[C@H](O[C@@H]2O[C@H](CO)[C@@H](O)[C@H](O)[C@H]2O)[C@H]1O[C@@H]1O[C@H](CO)[C@@H](O)[C@H](O)[C@H]1O)C3 [Reb D, Rebaudioside D] ?
Reply: 3

Query: For C=C1C[C@@]23CC[C@H]4[C@@](C)(CCC[C@@]4(C)C(=O)O[C@@H]4O[C@H](CO)[C@@H](O)[C@H](O)[C@H]4O)[C@@H]2CC[C@]1(O[C@@H]1O[C@H](CO)[C@@H](O)[C@H](O[C@@H]2O[C@H](CO)[C@@H](O)[C@H](O)[C@H]2O)[C@H]1O[C@@H]1O[C@H](CO)[C@@H](O)[C@H](O)[C@H]1O)C3 [Reb A, Rebaudioside A] , what is its reported Bitter taste: Number of panelists detected the attribute?
Reply: 20

Query: Which Bitter taste: Number of panelists detected the attribute is reported for this molecule? C=C1C[C@@]23CCC4[C@](C)(C(=O)OC5OC(CO)C(O)C(OC6OC(CO)C(O)C(O)C6O)C5OC5OC(CO)C(O)C(O)C5O)CCC[C@@]4(C)[C@@H]2CCC1(OC1OC(CO)C(O)C(OC2OC(CO)C(O)C(O)C2O)C1OC1OC(CO)C(O)C(O)C1O)C3 (stereo partly shown)
Reply: 0

Query: What measured Bitter taste: Number of panelists detected the attribute goes with C=C1C[C@@]23CC[C@H]4[C@@](C)(CCC[C@@]4(C)C(=O)O[C@@H]4O[C@H](CO)[C@@H](O)[C@H](O)[C@H]4O)[C@@H]2CC[C@]1(O[C@@H]1O[C@H](CO)[C@@H](O)[C@H](O)[C@H]1O[C@@H]1O[C@H](CO)[C@@H](O)[C@H](O)[C@H]1O)C3 [Stevioside] ?
Reply: 20
